System: MDA-MB-435 melanoma
procedureSummary: NCI-60 one-dose screen, 48 h
statedConditions: 10 µM unless noted
Compounds without any hit were thinned out: in the full panel of roughly 83,000, 20% have a hit. The source made the active and inactive calls. The calls were made as follows: active = growth percent below 10; inactive = the rest.
Select the correct class. Options are active, inactive and nothing else.

// known answers, use as guide
compound | labelValue
COc1ccc(C(=O)c2sc3nc4c(cc3c2N)CCCC4)cc1OC | active
CSc1nc(NCCO)c(C#N)c(-c2cccc(N)c2)n1 | inactive
Cc1cc(Cl)ccc1Nc1nc(C(F)(F)F)ccc1C(=O)N/N=C/c1ccc(F)cc1 | inactive
CSc1nc2sc3c(c2c(=O)n1-c1ccc(C(C)C)cc1)CCC(=O)C3 | active
O=C1CCc2c(sc3[nH]c(=S)n(Cc4ccccc4)c(=O)c23)C1 | inactive

Hi, sorry to bother you, what did the test record for Clc1cccc(Nc2nc(Nc3cnc4ccccc4c3)c3[nH]cnc3n2)c1 ? inactive

What did this assay record as the result for CC/C(=C(\c1ccc(O)cc1)c1ccc(OCCN(C)CCN(C)C(=O)CCCCC(=O)c2c(C)[nH]c(/C=C3\N=C(c4ccc[nH]4)C=C3OC)c2C)cc1)c1ccccc1 ? inactive

Hello, I am checking results. What call was entered for CN1CCN(Cc2ccc(NC(=O)c3cncc(C#Cc4cnc(N)c5cccnc45)c3)cc2C(F)(F)F)CC1 ? active

Lab log entry: CN1CCCCC1CCN1c2ccccc2Sc2ccc(Br)cc21 (stereo not given) — outcome as called in the assay? inactive

In this assay, the call recorded for CCN(C(=O)CN1CCN(c2cc3c(cc2F)c(=O)c(C(=O)O)cn3CC)CC1)c1nc(-c2ccccc2)cs1 was what? active

* * *

Tested on: SK-MEL-28 melanoma
procedureSummary: NCI-60 one-dose screen, 48 h
statedConditions: 10 µM unless noted
About 83,000 compounds went through this panel and 20% of them were active in at least one assay; those are over-represented in the sample as a whole. Activity calls are given as the source filed them. Rule for the calls: active = growth percent below 10; inactive = the rest.
Tick one outcome: TRUE = active, FALSE = inactive

molecule | labelValue
O=C1C(Cl)=C(Cl)C(=O)c2c1nc1n2CCCC1 | FALSE

Name the outcome recorded for CCCCCCCCCCCCCCCCCCNC(=O)[C@H]1CSC(c2ccc(F)c(OC)c2)N1 (stereo not given in full) in the assay. TRUE

Assay result, entry CCCCCCCCCCCCCCCCCCNC(=O)[C@H]1CSC(c2ccc(OC)c(F)c2)N1 (stereo not given in full) — outcome? TRUE

Tell me the assay call for NC(=S)N/N=C/c1cc(-c2cccc(N)c2)ccn1 please. FALSE

Per the records of this test, what outcome belongs to COC(/C=C/c1ccc([N+](=O)[O-])cc1)OC ? FALSE

Kindly provide the recorded test outcome for the following molecule: Cc1nc2sc(C(=O)Nc3cccc4c3OCCO4)c(N)c2cc1C(C)O (stereo not given) FALSE

* * *

Test system: NCI-H322M lung
procedureSummary: NCI-60 one-dose screen, 48 h (100 = growth as untreated, 0 = no growth, -100 = all killed)
statedConditions: 10 µM unless noted
Compounds without any hit were thinned out: in the full panel of roughly 83,000, 20% have a hit.
valueType: growth (%)
Kindly provide the numeric value in % only, without the unit symbol.

compound | value
COc1ccc(-c2cc(NC(=O)Nc3ccc(O)cc3)no2)cc1 | 66.8
CCC(c1ccccc1)C(CC)c1ccc(O)c(O)c1 (stereo not given) | 96.1
O=C1Nc2ccccc2/C1=C/C(=N/c1nnc(-c2ccc(Cl)cc2)s1)c1ccccc1 | 77

Recorded result, O=C1CC(c2nc3ccccc3[nH]2)CN1C1CCCCC1 (stereo not given) , growth: 103

Given item O=C(O)C(O)C(O)C(=O)O.[NH-]C1CCCCC1[NH-].[Pt+2] (stereo not given) , the value recorded as its growth is 117

* * *

Tested on: OVCAR-5 ovarian
procedureSummary: NCI-60 one-dose screen, 48 h (100 = growth as untreated, 0 = no growth, -100 = all killed)
statedConditions: 10 µM unless noted
About 83,000 compounds went through this panel and 20% of them were active in at least one assay; those are over-represented in the sample as a whole.
Heads up, the class ranges for growth are lower (below 60%), middle (60% to below 90%), upper (90% or more)

Some solved entries appear below for comparison.
molecule | labelValue
Cn1cc(-c2csc(-c3cn(C)c4ncccc34)n2)c2ccccc21 | middle
CS(=O)(=O)c1c(Nc2ccccc2)n[nH]c1N | upper

Which growth category applies to CCOC(=O)c1ccc2c(c1)nc(/C=C/c1ccc(Cl)cc1)n2-c1cc(C(C)(C)C)[nH]n1 here? upper

Using the reported growth, which band applies to CCOC(=O)/C=C/c1ccc(C(=O)OCC)[nH]1 ? middle

Sort into band: C=C1CC[C@@H]2[C@](C)(COC(C)=O)[C@H](OC(C)=O)CC[C@@]2(C)[C@@H]1CC(Nc1ccc(S(=O)(=O)Nc2ccc(Cl)nn2)cc1)C1=CCOC1=O (stereo not given in full) lower

Please indicate the class for CCCCCCCCCCCCCC(=O)C(C)N (stereo not given) based on its growth. middle

Each molecule maps to one class by growth. Which class for CC(C)CC(CC1=CCC2CC1C2(C)C)C1=C(O)C(C)(C)C(=O)C(C)(C)C1=O (stereo not given) ? lower

* * *

Tested on: SR leukemia
procedureSummary: NCI-60 one-dose screen, 48 h
statedConditions: 10 µM unless noted
This is part of a sample that, as a whole, favours compounds with a hit. Of some 83,000 tested, about 20% had one in any assay. Active and inactive are the calls of the source. Rule for the calls: active = growth percent below 10; inactive = the rest.
Please answer using one outcome listed in 1 (active), -1 (inactive)

molecule | labelValue
CSc1[nH]c2ncnc(N)c2c1C#N | -1
Cc1ccc(-c2nc(/C=N/Nc3cc(C)nc4ccc(Br)cc34)c(C)o2)cc1 | 1

Test call for this molecule, please: O=[N+]([O-])c1cccc(-c2nc3sccn3c2-c2ccnc(NCCCNS(=O)(=O)c3ccc(Br)cc3)n2)c1 -1

Per the records of this test, what outcome belongs to N=S(=O)(NC(=O)c1ccc(Cl)cc1Cl)c1ccc(Br)s1 (stereo not given) ? -1

Record request — test call for CSc1ncnc2c1ncn2C1CCCO1 (stereo not given) -1

Which outcome did this test record for the molecule CCOC(=O)c1c2c(n3ccc(NC(=O)CCN4CCOCC4)cc13)C(=O)c1ncccc1C2=O ? 1

Recorded test call requested for CCOc1ccc(Nc2nc(-c3c(C)nc4ncccn34)cs2)cc1 1

// outcome(item) with item = COc1ccc(CN(c2ccc(C)cc2)C2OC(=O)c3ccccc32)cc1OC (stereo not given) -1

Check the results log: what was the call for O=C(Nc1cccc2c1C(=O)c1cccc(Nc3cccc4c3C(=O)c3cccc(NC(=O)c5ccccc5)c3C4=O)c1C2=O)c1ccccc1 ? -1

Lab log entry: O=C(Nc1nc(-c2ccccc2)cc(-c2ccc(Cl)cc2)n1)c1ccncc1 — outcome as called in the assay? -1

Which result was noted for this molecule in the test: O=C1/C(=C\c2cn(C(=O)c3ccc(Cl)cc3)c3ccccc23)c2ccccc2N1c1c(Cl)cccc1Cl -1

Outcome logged for O=C1c2ccccc2-c2nccc3cc(Cl)nc1c23 in this assay: 1

Check the results log: what was the call for Nc1c(C(=O)Nc2ccccc2)sc2nc3c(cc12)CN(CCc1ccccc1)CC3 ? -1

# lookup: test call for CCCC(=O)Oc1ccc(/C(=C(/CC)Cc2ccccc2)c2ccc(OCCN3CCCC3)cc2)cc1 1

* * *

Tested on: SK-OV-3 ovarian
procedureSummary: NCI-60 one-dose screen, 48 h (100 = growth as untreated, 0 = no growth, -100 = all killed)
statedConditions: 10 µM unless noted
The panel holds about 83,000 compounds, 20% with a hit somewhere; the sample as a whole holds those more often.
valueType: growth (%)
Write the number in % without appending the unit.

Form: compound = O=C1c2cc3c(cc2-c2c1c1cc(F)c(F)cc1c(=O)n2C[C@H](O)CO)OCO3 ; growth = -4.97

* * *

Tested on: CAKI-1 renal
procedureSummary: NCI-60 one-dose screen, 48 h (100 = growth as untreated, 0 = no growth, -100 = all killed)
statedConditions: 10 µM unless noted
Compounds without any hit were thinned out: in the full panel of roughly 83,000, 20% have a hit. The source made the active and inactive calls. Rule for the calls: active = growth percent below 10; inactive = the rest.
Item-by-item account of growth

The following compounds have reported results that may help.
compoundSmiles | growth
CCn1cc2c(cc1=O)-c1nc3ccccc3c3ccnc(c13)C2=O | 60% (inactive)
Cc1ccc2c(c1)C(=O)/C(=C/c1ccc(OCC(=O)c3ccccc3)cc1)O2 | 103% (inactive)
Cc1cc2cc3cc(C)c(N(C)C)cc3[n+](C)c2cc1N(C)C | 47.2% (inactive)
COc1cc(C(=O)/C=C/c2c(C)n([O-])c3ccc(C)cc3[n+]2=O)cc(OC)c1OC | 6.71% (active)
Cn1c2ccccc2c2c3c(c4c5ccccc5[nH]c4c21)C(=O)N(N)C3=O | 30.7% (inactive)

Okay, next one:
Form: item N#Cc1c(N)nc(N)nc1Nc1ccc(Br)cc1 ; test system CAKI-1 renal; growth: 80.1% (inactive)

// provenance: PubChem BioAssay (NCI)
